Where do the numbers come from? From patent US11512053B2.

Target: full-length human PRMT1 isoform 1 (GST-tagged) (Homo sapiens, UniProt Q99873)
Sequence (Q99873 with tags, fused parts or gaps): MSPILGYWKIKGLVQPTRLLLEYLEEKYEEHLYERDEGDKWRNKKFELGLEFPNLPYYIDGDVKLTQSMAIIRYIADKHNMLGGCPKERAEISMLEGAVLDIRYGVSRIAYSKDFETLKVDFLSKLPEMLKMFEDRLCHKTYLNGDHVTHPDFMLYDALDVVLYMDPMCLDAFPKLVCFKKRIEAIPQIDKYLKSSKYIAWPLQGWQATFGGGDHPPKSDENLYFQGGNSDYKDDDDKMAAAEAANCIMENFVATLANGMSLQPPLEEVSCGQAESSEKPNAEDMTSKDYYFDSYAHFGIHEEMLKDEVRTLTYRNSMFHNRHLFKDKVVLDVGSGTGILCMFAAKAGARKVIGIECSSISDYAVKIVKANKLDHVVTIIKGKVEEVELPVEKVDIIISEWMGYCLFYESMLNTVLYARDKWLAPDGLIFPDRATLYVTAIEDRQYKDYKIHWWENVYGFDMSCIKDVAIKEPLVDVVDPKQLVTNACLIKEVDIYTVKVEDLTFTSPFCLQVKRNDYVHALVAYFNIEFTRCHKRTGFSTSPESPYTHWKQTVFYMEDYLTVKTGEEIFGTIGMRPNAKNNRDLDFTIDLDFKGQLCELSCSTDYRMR
Assay: PRMT1 Biochemical Assay (3H-SAM Flashplate, peptide substrate)
Details: single experiment or average of multiple experiments
Readout Kind: IC50 (nM)

The examples below pair each entry with its known result.
INSERT INTO results (molecule, result_value) VALUES
  ('CNCCN(C)Cc1c[nH]nc1C1CCC(O)C2(CCCC2)C1 (centres unmarked) [Compound 182]', 11.6),
  ('CNCCN(C)Cc1c[nH]nc1[C@H]1CC[C@@H](C(=O)N(C)CCOc2ccccc2)CC1 [Compound 259]', 15.8),
  ('CNCCN(C)Cc1c[nH]nc1[C@H]1CC[C@]2(CCN(Cc3cc(F)cc(F)c3)C2=O)CC1 [Compound 197]', 8.27);

A = CNCCN(C)Cc1c[nH]nc1C1CCC2(CC1)OCC(C(C)C)CO2 (centres unmarked) [Compound 150]
B = CNCCN(C)Cc1c[nH]nc1[C@H]1CC[C@@H](N(CCOc2ccccc2)C(=O)CCCOC)CC1 [Compound 228]
input: Compare the recorded IC50 of A and B ; state which is larger. Give the label of your selection.
output: B

I = CNCCN(C)Cc1c[nH]nc1[C@@H]1CCC(C)(C)[C@@H](C(=O)NCCCOC)C1 [Compound 271]
II = CNCCN(C)Cc1c[nH]nc1C1CCC2(CCNC2=O)CC1 (centres unmarked) [Compound 176]
input: Among I and II , whose measured IC50 is the smaller figure? Give the label of your selection.
output: II
